target: HLA-A*24:03; experiment: IEDB peptide-MHC binding, purified MHC/direct/fluorescence; filed as Kd, often an IC50 or EC50 that approximates it; bounds were set here for any values at or beyond the usual limits of such assays; conditions: source organism: Reston ebolavirus
pKd: −log10 of the molar value.

>  <Query Sequence>
RTYSLLNRK

>  <pKd>
≤ 4.70

$$$$

###

target: HLA-A*24:02; assay: IEDB peptide-MHC binding, purified MHC/competitive/radioactivity; filed as Kd, often an IC50 or EC50 that approximates it; bounds were set here for any values at or beyond the usual limits of such assays; conditions: source organism: Mammarenavirus whitewaterense
Recorded Endpoint: Kd

>  <Query Sequence>
LLQFIVFLL

>  <System>
HLA-A*24:02

>  <Recorded Endpoint>
Kd

>  <Reported>
≥ 77.5 µM

$$$$

###

biological target: HLA-A*69:01; experiment: IEDB peptide-MHC binding, purified MHC/direct/fluorescence; filed as Kd, often an IC50 or EC50 that approximates it; bounds were set here for any values at or beyond the usual limits of such assays; settings: source organism: Mycobacterium tuberculosis

>  <Query Sequence>
GLLDVTDNV

>  <Relation Operator>
=

>  <Kd (nM)>
486

$$$$
>  <Query Sequence>
IQAVFGFSL

>  <Relation Operator>
≥

>  <Kd (nM)>
20000

$$$$

###

target: HLA-A*02:17; assay: IEDB peptide-MHC binding, purified MHC/competitive/radioactivity; filed as Kd, often an IC50 or EC50 that approximates it; bounds were set here for any values at or beyond the usual limits of such assays; details: source organism: Dengue virus 1 Nauru/West Pac/1974

>  <Query Sequence>
MLDVDLHPA

>  <System>
HLA-A*02:17

>  <Kd (µM)>
19.8

$$$$

###

molecular target: HLA-B*45:06; experiment: IEDB peptide-MHC binding, purified MHC/competitive/fluorescence; filed as Kd, often an IC50 or EC50 that approximates it; bounds were set here for any values at or beyond the usual limits of such assays; conditions: source organism: Yersinia pseudotuberculosis IP 31758

>  <Query Sequence>
RQMRASAPL

>  <Kd>
≥ 5 µM

$$$$

###

target: HLA-B*15:01; assay: IEDB peptide-MHC binding, purified MHC/direct/fluorescence; filed as Kd, often an IC50 or EC50 that approximates it; bounds were set here for any values at or beyond the usual limits of such assays; details: source organism: Bacillus anthracis

>  <Query Sequence>
PTDYAKPQY

>  <System>
HLA-B*15:01

>  <Kd>
≥ 20 µM

$$$$
>  <Query Sequence>
TPRIANRLL

>  <System>
HLA-B*15:01

>  <Kd>
≥ 20 µM

$$$$

###

target: HLA-B*57:01; assay: IEDB peptide-MHC binding, purified MHC/direct/fluorescence; filed as Kd, often an IC50 or EC50 that approximates it; bounds were set here for any values at or beyond the usual limits of such assays; conditions: source organism: Burkholderia mallei
pKd: −log10 of the molar value.
Reported pKd values are given for each entry in this list.
Recorded Endpoint: pKd

>  <Query Sequence>
LAASVFFTF

>  <System>
HLA-B*57:01

>  <Reported>
5.67

$$$$
>  <Query Sequence>
IYDFYNAEY

>  <System>
HLA-B*57:01

>  <Reported>
≤ 4.70

$$$$
>  <Query Sequence>
IQRRGAQFQ

>  <System>
HLA-B*57:01

>  <Reported>
≤ 4.70

$$$$
